System: HiBiT-tagged MYB protein
protocol_text: HiBiT protein abundance assay, MYB (K562 HiBiT knock-in cells)
Format: cell-based, human
condition_notes: 24 hours
measurement_type: IC50

Previously resolved entries follow.
{"compound": "Cc1ccc2c(N3CCC4(CCN4)CC3)ccc(C(=O)Nc3cc(F)c4nc(C)cn4c3)c2n1", "system": "HiBiT-tagged MYB protein", "IC50": "< 0.1 µM"}
{"compound": "Cc1cn2cc(NC(=O)c3ccc(N4CCNC5(CCC5)C4)c4nccnc34)cc(F)c2n1", "system": "HiBiT-tagged MYB protein", "IC50": "< 0.1 µM"}
{"compound": "Cc1cn2cc(NC(=O)c3ccc(N4C[C@@H](C)N[C@@H](C)C4)c4cncnc34)cc(F)c2n1", "system": "HiBiT-tagged MYB protein", "IC50": "0.1 to 1 µM"}

response.value for `Cc1cn2cc(NC(=O)c3ccc(N4CCNC5(CC5)C4)c4ccnnc34)cc(F)c2n1` (field: IC50) = 0.1 to 1 µM

response.value for `Cc1cn2cc(NCc3ccc(N4CCNCC4)c4ccnnc34)cc(F)c2n1` (field: IC50) = > 10 µM

====

Test system: K562 cells
protocol_text: Cell Titer Glo 2.0 cell viability assay in K562 cells
condition_notes: 72 hours
measurement_type: Viability

Previously resolved entries follow.
{"compound": "CNC1CCN(c2ccc(C(=O)Nc3cc(F)c4nc(C)cn4c3)c3nc(OC)cnc23)C1 (stereo not drawn)", "system": "K562 cells", "Viability": "A (A represents <100 nM)"}
{"compound": "Cc1cn2cc(NC(=O)c3ccc(C4CCNCC4)c4ccnnc34)cc(F)c2n1", "system": "K562 cells", "Viability": "A (A represents <100 nM)"}
{"compound": "Cc1cn2cc(NC(=O)c3ccc(N4CCC(N(C)C)CC4)c4ccnnc34)cc(F)c2n1", "system": "K562 cells", "Viability": "A (A represents <100 nM)"}
{"compound": "CN[C@@H]1CCN(c2ccc(C(=O)Nc3cc(F)c4nc(C)cn4c3)c3nccnc23)C1 (single isomer, unassigned)", "system": "K562 cells", "Viability": "A (A represents <100 nM)"}
{"compound": "CCNC1CCN(c2ccc(C(=O)Nc3cc(F)c4nc(C)cn4c3)c3nnccc23)CC1", "system": "K562 cells", "Viability": "A (A represents <100 nM)"}

Record `Cc1cn2cc(NC(=O)c3ccc(N4CCN[C@H](C)C4)c4ccnnc34)cc(F)c2n1` ; system K562 cells; Viability = A (A represents <100 nM)

Record CN[C@H]1CCN(c2ccc(C(=O)Nc3cc(F)c4nc(C)cn4c3)c3nccnc23)C1 (single isomer, unassigned) ; system K562 cells; Viability = A (A represents <100 nM)

Record `COc1ncc2c(N3C[C@@H](C)N[C@@H](C)C3)ccc(C(=O)Nc3cn4cc(C)nc4c(OC)n3)c2n1` ; system K562 cells; Viability = A (A represents <100 nM)

Record `Cc1ccc2c(N3CCC4(CCN4)CC3)ccc(C(=O)Nc3cc(F)c4nc(C)cn4c3)c2n1` ; system K562 cells; Viability = A (A represents <100 nM)

Record `Cc1nc2c(F)cc(NC(=O)c3ccc(N4CCNCC4)c4ccnnc34)cc2s1` ; system K562 cells; Viability = A (A represents <100 nM)

Record Cc1cn2cc(NC(=O)c3ccc(N4CCNC(C)C4)c4nccnc34)cc(F)c2n1 (stereo not drawn) ; system K562 cells; Viability = A (A represents <100 nM)

====

Tested on: HiBiT-tagged HTT protein
protocol_text: HiBiT protein abundance assay, HTT (K562 HiBiT knock-in cells)
Format: cell-based, human
condition_notes: 24 hours
measurement_type: IC50

Previously resolved entries follow.
{"compound": "Cc1cn2cc(NC(=O)c3ccc(N4CCNC5(CCOCC5)C4)c4nccnc34)cc(F)c2n1 [Compound 374]", "IC50": "1000 to 10000 nM"}
{"compound": "COc1cnc2c(N3CCC(N(C)C)CC3)ccc(C(=O)Nc3cc(F)c4nc(C)cn4c3)c2n1 [Compound 206, trifluoroacetic acid]", "IC50": "100 to 1000 nM"}

Would you kindly look at the next entry?
response.value for Cc1cn2cc(NC(=O)c3ccc(N4CCNC(C)(CO)C4)c4nccnc34)cc(F)c2n1 (stereo not drawn) [Compound 368] (field: IC50) = 1000 to 10000 nM

====

System: HiBiT-tagged HTT protein
protocol_text: HiBiT protein abundance assay, HTT (K562 HiBiT knock-in cells)
Type: cell-based, human
condition_notes: 24 hours
pIC50: −log10 of the molar value.
Listing: pIC50 of selected compounds

{"compound": "Cc1cn2cc(NC(=O)c3ccc(C4=CCNCC4)c4nccnc34)cc(F)c2n1", "system": "HiBiT-tagged HTT protein", "value": "> 7.00"}

response.value for `COc1nc(NC(=O)c2ccc(N3CCNCC3)c3ccnnc23)cn2cc(C)nc12` (field: pIC50) = 5.00 to 6.00

response.value for `CCNC1CCN(c2ccc(C(=O)Nc3cc(F)c4nc(C)cn4c3)c3nnccc23)CC1` (field: pIC50) = 6.00 to 7.00

response.value for `Cc1cn2cc(NC(=O)c3ccc(N4CCC(N(C)C)CC4)c4ccnnc34)cc(F)c2n1` (field: pIC50) = 6.00 to 7.00

response.value for `COc1cnc2c(N3CC[C@@H](N(C)C)C3)ccc(C(=O)Nc3cc(F)c4nc(C)cn4c3)c2n1` (field: pIC50) = 6.00 to 7.00

response.value for `Cc1c(O)c(NC(=O)c2ccc(N3CCNCC3)c3ccnnc23)cc2cn(C)nc12` (field: pIC50) = < 5.00

response.value for `COc1ccc2c(N3CCNCC3)ccc(C(=O)Nc3cc(F)c4nc(C)cn4c3)c2n1` (field: pIC50) = 6.00 to 7.00

response.value for `Cc1cn2cc(NC(=O)c3ccc(N4CCC(NC(C)(C)C)CC4)c4ccnnc34)cc(F)c2n1` (field: pIC50) = 5.00 to 6.00

====

System: HiBiT-tagged MYB protein
protocol_text: HiBiT protein abundance assay, MYB (K562 HiBiT knock-in cells)
Type: cell-based, human
condition_notes: 24 hours
pIC50: −log10 of the molar value.
measurement_type: pIC50

Previously resolved entries follow.
{"molecule": "COCCOc1cc2c(N3CCNCC3)ccc(C(=O)Nc3cc(F)c4nc(C)cn4c3)c2nn1 [Compound 199]", "measurement_type": "pIC50", "value": "> 7.00"}
{"molecule": "Cc1cn2cc(NC(=O)c3ccc(N4C[C@H]5CC[C@@H](C4)N5)c4ccnnc34)cc(F)c2n1 [Compound 108]", "measurement_type": "pIC50", "value": "6.00 to 7.00"}
{"molecule": "Cc1cn2cc(NC(=O)c3ccc(N4C[C@@H](C)N[C@@H](C)C4)c4ncccc34)cc(F)c2n1 [Compound 358]", "measurement_type": "pIC50", "value": "< 5.00"}

response.value for COc1nc2c(F)cc(NC(=O)c3ccc(N4C[C@@H](C)N[C@@H](C)C4)c4nccnc34)cc2o1 [Compound 342] (field: pIC50) = < 5.00

response.value for Cc1c(O)c(NC(=O)c2ccc(N3C[C@@H](C)N[C@@H](C)C3)c3nccnc23)cc2cn(C)nc12 [Compound 310] (field: pIC50) = 5.00 to 6.00

response.value for Cc1ccc2cc(NC(=O)c3ccc(N4C[C@@H](C)N[C@@H](C)C4)c4nccnc34)cc(F)c2n1 [Compound 353] (field: pIC50) = < 5.00

response.value for Cc1cn2cc(NC(=O)c3ccc(N4CCNC(C)C4)c4ccnnc34)cc(F)c2n1 (stereo not shown) [Compound 128] (field: pIC50) = > 7.00

====

Test system: HiBiT-tagged HTT protein
protocol_text: HiBiT protein abundance assay, HTT (K562 HiBiT knock-in cells)
Format: cell-based, human
condition_notes: 24 hours
Description: Compounds described herein were used to screen for effects on quantitative protein abundance using a HiBit assay system (Promega). Quantitative protein abundance was determined by measuring the protein levels of HiBit-tagged protein targets expressed in cell culture via luminescence using the Nano-Glo HiBiT Lytic Detection System, which uses a split complementation assay format to reconstitute NanoBiT enzyme to generate a luminescent signal. […]
measurement_type: IC50

Previously resolved entries follow.
{"compound": "CCC1CN(c2ccc(C(=O)Nc3cc(F)c4nc(C)cn4c3)c3nnccc23)CCN1 (stereo not shown)", "IC50": "1000 to 10000 nM"}
{"compound": "COCCOc1cc2c(N3CCNCC3)ccc(C(=O)Nc3cc(F)c4nc(C)cn4c3)c2nn1", "IC50": "1000 to 10000 nM"}

response.value for `Cc1cn2cc(NC(=O)c3ccc(N4CCNC5(CCC5)C4)c4nccnc34)cc(F)c2n1` (field: IC50) = 1000 to 10000 nM

response.value for Cc1cn2cc(NC(=O)c3ccc(N4C5CNCC54)c4nccnc34)cc(F)c2n1 (stereo not shown) (field: IC50) = 100 to 1000 nM

response.value for `Cc1ccc2c(N3C[C@@H](C)N[C@@H](C)C3)ccc(C(=O)Nc3cc(F)c4nc(C)cn4c3)c2n1` (field: IC50) = 1000 to 10000 nM

response.value for `Cc1cn2cc(NC(=O)c3ccc(N4CC[C@@H](N(C)C)C4)c4nccnc34)cc(F)c2n1` (field: IC50) = > 10000 nM

response.value for CN[C@@H]1CCN(c2ccc(C(=O)Nc3cc(F)c4nc(C)cn4c3)c3nccnc23)C1 (single isomer, unassigned) (field: IC50) = 1000 to 10000 nM
